Experiment: Selectivity index, ratio of IC50 for human THP1 cells to IC50 for intracellular amastigote stage of Leishmania donovani MHOM/ET/67/HU3
Type: toxicity, cell-based, THP-1
Settings: read-out: Selectivity Index
Entries and their selectivity ratio

Study these solved cases before continuing.
• Fc1ccc(-c2ccc(CN3C4=NCCN4c4ccccc43)cc2)cc1 = 3.94
• CC(C)(C)c1ccc(CN2C3=NCCCN3c3ccccc32)cc1 = > 3.98

// moving on: another record for selectivity ratio
-- ask Supply reported selectivity ratio belonging to this compound: CC(C)(C)c1ccc(CCN2C3=NCCN3c3ccccc32)cc1
-- reply > 1.98

* * *

Assay: Selectivity index, ratio of IC50 for human U2OS cells to IC50 for intracellular Trypanosoma cruzi
Type: toxicity, cell-based
Conditions: U2OS cells versus intracellular Trypanosoma cruzi, read-out: Selectivity Index
Kindly return criterion met if reported selectivity ratio is no lower than 2; return criterion not met if it is lower.

-- ask hey, is selectivity ratio for this one >= 2? Fc1ccc(-c2ccc(CN3C4=NCCN4c4ccccc43)cc2)cc1
-- reply criterion met

-- ask Item CC(C)(C)c1ccc(CN2C3=NCCN3c3ccccc32)cc1 with selectivity ratio of 2 or above?
-- reply criterion met

-- ask Does the molecule c1ccc(Oc2ccc(CN3C4=NCCN4c4ccccc43)cc2)cc1 have recorded selectivity ratio that is 2 or more?
-- reply criterion not met

-- ask hey, is selectivity ratio for this one >= 2? CC(C)(C)c1ccc(CN2C3=NCCN3c3cc(F)ccc32)cc1
-- reply criterion met

-- ask Given the entry Cc1ccc2c(c1)N1CCN=C1N2Cc1ccc(C(C)(C)C)cc1 , answer whether its selectivity ratio meets or surpasses 2.
-- reply criterion met

* * *

Assay: Cytotoxicity against human U2OS cells infected with intracellular Trypanosoma cruzi
Type: cell-based
As shown below, each of these compounds has a reported CC50 value.
Quick note: give the figure in µM, leave out the unit.

• Cc1ccc(-c2ccc(CN3C4=NCCN4c4ccccc43)cc2)cc1 = 10.3
• CC(C)(C)c1ccc(CN2C3=NCCN3c3cc(F)ccc32)cc1 = 50
• c1ccc(Oc2ccc(CN3C4=NCCN4c4ccccc43)cc2)cc1 = 20
• Fc1ccc(F)c(-c2ccc(CN3C4=NCCN4c4ccccc43)cc2)c1 = 9.61
• CC(C)(C)c1ccc(CN2C3=NCCN3c3ccccc32)cc1 = 36.5
• CC(C)(C)c1ccc(OCCN2C3=NCCN3c3ccccc32)cc1 = 37.9
• c1ccc(-c2ccc(CN3C4=NCCN4c4ccccc43)cc2)cc1 = 18.8
• CC(C)(C)c1cccc(CN2C3=NCCN3c3ccccc32)c1 = 34.6

Now turn to the next compound.
-- ask # return recorded CC50 for input Clc1ccc(-c2ccc(CN3C4=NCCN4c4ccccc43)cc2)cc1
-- reply 9.36

* * *

Test: Cytotoxicity against human THP1 cells infected with intracellular amastigote stage of Leishmania donovani MHOM/ET/67/HU3
Assay type: cell-based, THP-1
// CC50 lookup, one value per entry

Solved entries (count: 3):
• Fc1ccc(CN2C3=NCCN3c3ccccc32)cc1 = > 50 µM
• Cc1cc2c(cc1C)N(Cc1ccc(C(C)(C)C)cc1)C1=NCCN12 = > 50 µM
• c1ccc(-c2ccc(CN3C4=NCCN4c4ccccc43)cc2)cc1 = 39.7 µM

-- ask Read off the recorded CC50 for Cc1cc(C)cc(CN2C3=NCCN3c3ccccc32)c1
-- reply > 50 µM

-- ask Kindly indicate its recorded CC50. Item: Cc1ccc2c(c1)N1CCN=C1N2Cc1ccc(C(C)(C)C)cc1
-- reply 28.1 µM

* * *

Assay: Selectivity index, ratio of IC50 for human THP1 cells to IC50 for intracellular amastigote stage of Leishmania donovani MHOM/ET/67/HU3
Assay type: toxicity, cell-based, THP-1
Conditions: read-out: Selectivity Index
Is selectivity ratio at least 2? Then Y. If not, N.

Use the examples below as a reference point.
- CC(C)(C)c1ccc(OCCN2C3=NCCN3c3ccccc32)cc1: N
- c1ccc(-c2ccc(CN3C4=NCCN4c4ccccc43)cc2)cc1: Y

-- ask State whether the measured selectivity ratio reaches 2, counting equality as reaching it, for Cc1ccc(-c2ccc(CN3C4=NCCN4c4ccccc43)cc2)cc1
-- reply N

-- ask Entry CCCCCCCCCCCCCCCCOP(=O)([O-])OCC[N+](C)(C)C [MILTEFOSINE] : is its selectivity ratio no less than 2?
-- reply Y

-- ask Could you please find out whether FC(F)(F)Oc1ccc(-c2ccc(CN3C4=NCCN4c4ccccc43)cc2)cc1 has selectivity ratio that meets 2 or exceeds it?
-- reply Y

* * *

Experiment: Selectivity index, ratio of IC50 for human THP1 cells to IC50 for intracellular amastigote stage of Leishmania donovani MHOM/ET/67/HU3
Assay type: toxicity, cell-based, THP-1
Settings: read-out: Selectivity Index
experimental-readout: selectivity ratio

- CC(C)(C)c1cccc(CN2C3=NCCN3c3ccccc32)c1: > 2.21

-- ask Input CC(C)(C)c1ccc(C(=O)CN2C3=NCCN3c3ccccc32)cc1 , output reported selectivity ratio.
-- reply > 1.27

-- ask For the compound CC(C)(C)c1ccc(CN2C3=NCCN3c3ccccc32)cc1 , give its reported selectivity ratio.
-- reply > 16.4

* * *

Assay: Cytotoxicity against human THP1 cells infected with intracellular amastigote stage of Leishmania donovani MHOM/ET/67/HU3
Format: cell-based, THP-1
Each item that follows carries a reported CC50.

-- ask Quick one: give measured CC50 for CC(C)(C)c1ccc(CN2C3=NCCCN3c3ccccc32)cc1
-- reply > 50 µM

-- ask Item CC(C)(C)c1ccc(CN2C3=NC(=O)CN3c3ccccc32)cc1 : provide CC50
-- reply > 50 µM

-- ask Give recorded CC50. FC(F)(F)c1ccc(CN2C3=NCCN3c3ccccc32)cc1
-- reply > 50 µM

-- ask Identify measured CC50 associated with CC(C)(C)c1ccc(CN2C3=NCCN3c3ccccc32)cc1
-- reply > 50 µM

-- ask Complete the entry with CC50 for CS(=O)(=O)c1ccc(CN2C3=NCCN3c3ccccc32)cc1
-- reply > 50 µM

-- ask State its CC50 for this molecule: FC(F)(F)Oc1ccc(CN2C3=NCCN3c3ccccc32)cc1
-- reply > 50 µM

* * *

Experiment: Selectivity index, ratio of IC50 for human U2OS cells to IC50 for intracellular Trypanosoma cruzi
Type: toxicity, cell-based
Settings: U2OS cells versus intracellular Trypanosoma cruzi, read-out: Selectivity Index
experimental-readout: selectivity ratio

-- ask Respond only with selectivity ratio recorded for c1ccc2c(c1)N1CCN=C1N2Cc1ccc(C2CCCCC2)cc1
-- reply 3.81

-- ask Answer with reported selectivity ratio of O=C(Cn1ccnc1[N+](=O)[O-])NCc1ccccc1 [BENZNIDAZOLE]
-- reply > 2.42

-- ask Find the measured selectivity ratio of CC(C)(C)c1ccc(CN2C3=NCCCN3c3ccccc32)cc1 and report it.
-- reply > 16.2

-- ask Complete the entry with selectivity ratio for Fc1ccc(F)c(-c2ccc(CN3C4=NCCN4c4ccccc43)cc2)c1
-- reply 2.14

-- ask Consider the compound c1ccc(-c2ccc(CN3C4=NCCN4c4ccccc43)cc2)cc1 . State its measured selectivity ratio.
-- reply 8.95

-- ask Give a short answer stating reported selectivity ratio for CC(C)(C)c1ccc(OCCN2C3=NCCN3c3ccccc32)cc1 .
-- reply 4.36

-- ask Find the measured selectivity ratio of CCc1ccc(CN2C3=NCCN3c3ccccc32)cc1 and report it.
-- reply > 1.48

-- ask Fill in selectivity ratio for record Cc1ccc(-c2ccc(CN3C4=NCCN4c4ccccc43)cc2)cc1
-- reply 1.38

-- ask Specify selectivity ratio for CC(C)(C)c1cccc(CN2C3=NCCN3c3ccccc32)c1 and stop.
-- reply 2.77

* * *

Each entry below carries its recorded CC50.
Assay: Cytotoxicity against human U2OS cells infected with intracellular Trypanosoma cruzi
Format: cell-based

Check out these entries, answers already filled in.
* Cc1ccc2c(c1)N1CCN=C1N2Cc1ccc(C(C)(C)C)cc1 | > 50 µM
* CC(C)(C)c1ccc(CN2C3=NCCCN3c3ccccc32)cc1 | > 50 µM
* O=C(Cn1ccnc1[N+](=O)[O-])NCc1ccccc1 | > 50 µM
* COc1ccc(-c2ccc(CN3C4=NCCN4c4ccccc43)cc2)cc1 | > 50 µM
* FC(F)(F)Oc1ccc(-c2ccc(CN3C4=NCCN4c4ccccc43)cc2)cc1 | > 50 µM

-- ask Output CC50 of CC(C)(C)c1ccc(C(=O)CN2C3=NCCN3c3ccccc32)cc1
-- reply > 50 µM

-- ask For the compound Cc1cc(C)cc(CN2C3=NCCN3c3ccccc32)c1 , give its measured CC50 value.
-- reply > 50 µM

-- ask Consider the compound CC(C)c1ccc(CN2C3=NCCN3c3ccccc32)cc1 . State its measured CC50.
-- reply > 50 µM

-- ask Quote CC50 reported for Fc1ccc(-c2ccc(CN3C4=NCCN4c4ccccc43)cc2)cc1 please.
-- reply > 50 µM

-- ask Assign CC50 to the following record: CC(C)(C)c1ccc(CN2C3=NC(=O)CN3c3ccccc32)cc1
-- reply > 50 µM

-- ask Consider the compound c1ccc2c(c1)N1CCN=C1N2Cc1ccc(C2CCCCC2)cc1 and give its recorded CC50.
-- reply 6.1 µM

-- ask Note CC50 for the compound shown: Fc1ccc(CN2C3=NCCN3c3ccccc32)cc1
-- reply > 50 µM

-- ask Answer with the recorded CC50 for the compound listed here: c1ccc(CN2C3=NCCN3c3ccccc32)nc1
-- reply > 50 µM

-- ask Tell me measured CC50 for FC(F)(F)c1ccc(CN2C3=NCCN3c3ccccc32)cc1 please.
-- reply > 50 µM

-- ask Identify measured CC50 corresponding to FC(F)(F)c1ccc(-c2ccc(CN3C4=NCCN4c4ccccc43)cc2)cc1
-- reply > 50 µM

-- ask Quick one: give measured CC50 for CC(C)(C)c1ccc(CCN2C3=NCCN3c3ccccc32)cc1
-- reply 21 µM

-- ask Return CC50 (reported value) for this compound: CCc1ccc(CN2C3=NCCN3c3ccccc32)cc1
-- reply > 50 µM

-- ask For the compound Cc1cc2c(cc1C)N(Cc1ccc(C(C)(C)C)cc1)C1=NCCN12 , report CC50.
-- reply > 50 µM

-- ask Answer with reported CC50 of CC(C)(C)c1ccc(CN2C3=NCCN3c3cc(Cl)ccc32)cc1
-- reply 44.6 µM
